tested on: Acinetobacter baumanii T6474; assay: Bacterial growth minimal inhibitory concentration (microdilution, cation-adjusted Mueller-Hinton Broth); format: cell-based; conditions: Acinetobacter baumannii, multiply-resistant strain (in particular quinolone-resistant)
readout_label: MIC (µg/mL)

compound	readout_label	reported_result
Cc1ccc2ccc(=O)n3c2c1[C@H](NCCCc1nn(-c2ccc4c(n2)NC(=O)CO4)c(=O)o1)C3 [Example 40]	MIC	2
O=C1CSc2ccc(-n3nc(CCCN[C@@H]4Cn5c(=O)ccc6ccc(F)c4c65)oc3=O)nc2N1 [Example 17]	MIC	0.25

[A] O=C1COc2ccc(-n3nc(CCCN[C@@H]4Cn5c(=O)ccc6ncc(F)c4c65)oc3=O)nc2N1 [Example 37]
[B] O=C1COc2ccc(-n3nc(CCCN[C@H]4Cn5c(=O)cnc6cccc4c65)oc3=O)nc2N1 [Example 36]
[C] O=C1CSc2ccc(-n3nc(CCCN[C@H]4Cn5c(=O)ccc6ccc(F)c4c65)oc3=O)nc2N1 [Example 14]
Query: With regard to MIC, arrange the entries in ascending order, please. Returns: the labels listed in the requested order.
Reply: C, A, B
(C: 0.25 µg/mL, A: 2 µg/mL, B: 4 µg/mL)

====

Test system: Staphylococcus aureus ATCC29213
Assay: Bacterial growth minimal inhibitory concentration (microdilution, cation-adjusted Mueller-Hinton Broth)
Assay type: cell-based
Conditions: methicillin-sensitive and quinolone-sensitive strain, read-out: MIC for S. aureus ATCC29213
Protocol: Minimal Inhibitory Concentrations (MICs; mg/L) were determined in cation-adjusted MuellerHinton Broth by a microdilution method following the description given in “Methods for Dilution Antimicrobial Susceptibility Tests for Bacteria that Grow Aerobically”, Approved standard, 7th ed., Clinical and Laboratory Standards Institute (CLSI) Document M7-A7, Wayne, Pa., USA, 2006. All Example compounds were tested against several Gram positive and Gram negative bacteria. […]
// reported MIC for each item listed

# annotated cases, reported MIC shown
O=C1CSc2ccc(-n3nc(CCCN[C@H]4Cn5c(=O)ccc6ccc(F)c4c65)oc3=O)cc2N1 ≤ 0.016 µg/mL
O=C1CSc2ccc(-n3nc(CCCN[C@@H]4Cn5c(=O)cnc6ccc(F)c4c65)oc3=O)cc2N1 ≤ 0.016 µg/mL

Query: Entry `O=C1CSc2ccc(-n3nc(CCCN[C@H]4Cn5c(=O)cnc6ccc(F)c4c65)oc3=O)cc2N1` , system Staphylococcus aureus ATCC29213: what MIC was measured?
Reply: ≤ 0.016 µg/mL

====

System: Acinetobacter baumanii T6474
Test: Bacterial growth minimal inhibitory concentration (microdilution, cation-adjusted Mueller-Hinton Broth)
Format: cell-based
Details: Acinetobacter baumannii, multiply-resistant strain (in particular quinolone-resistant)
Experimental: Minimal Inhibitory Concentrations (MICs; mg/L) were determined in cation-adjusted MuellerHinton Broth by a microdilution method following the description given in “Methods for Dilution Antimicrobial Susceptibility Tests for Bacteria that Grow Aerobically”, Approved standard, 7th ed., Clinical and Laboratory Standards Institute (CLSI) Document M7-A7, Wayne, Pa., USA, 2006. All Example compounds were tested against several Gram positive and Gram negative bacteria. […]
readout_label: MIC

The following molecules have reported results that may help.
molecule	reported_result
CCCc1ccc(-n2nc(CCCN[C@@H]3Cn4c(=O)ccc5ccc(F)c3c54)oc2=O)cc1 [Example 1]	> 8 mg/L
CC(C)c1ccc(-n2nc(CCCN[C@@H]3Cn4c(=O)ccc5ccc(F)c3c54)oc2=O)cc1 [Example 3]	> 8 mg/L

Query: Fill in: MIC of O=C1CSc2ccc(-n3nc(CCCN[C@H]4Cn5c(=O)cnc6ccc(F)c4c65)oc3=O)cc2N1 [Example 21] is ___
Reply: ≤ 0.016 mg/L
